target: Aryl hydrocarbon receptor (Homo sapiens)
test.protocol: qHTS assay to identify small molecule that activate the aryl hydrocarbon receptor (AhR) signaling pathway (AID 743085); note: nearly all actives have a fitted effect of over 15% in size;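 for activation: HG2L7.5c1 human HepG2 liver cells with stably integrated DRE-driven firefly reporter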
cond: HepG2 AhR-luc (HG2L7.5c1), luciferase, 24 h; series mostly up to 70.3 µM
Inconclusive results are not listed. Active and inactive are the calls of the source. Calls come from the whole dose curve; as a rule, active = well fitted activation curve with a large enough effect in the repeat runs; inconclusive = weak or mixed curves; inactive = no such curve, though single readings can be large or run the other way.
Select the matching outcome among active, inactive

Look over these answered cases.
> print(dat)
                              compound  classification
1                         COP(=O)(O)OC        inactive
2         CCc1cc(OC)c(C[C@H](C)N)cc1OC        inactive
3  COC1=CC(=O)O[C@@H](/C=C/c2ccccc2)C1        inactive

Entry Cc1ccc2c(c1)C1CN(C)CCC1N2 (stereo unspecified) : call = ?
inactive

Please share the test call associated with `O=C(Cl)/C=C/C(=O)Cl` .
inactive

Please share the test call associated with CCC(C)(C#N)N=NC(C)(C#N)CC (stereo unspecified) .
inactive

So what was the verdict on `CN(C)CCc1c[nH]c2cccc(OP(=O)(O)O)c12` in this test?
inactive

Hi, do you know how `C=C1CC[C@@]2(O)[C@H]3Cc4ccc(O)c5c4[C@@]2(CCN3CC2CC2)[C@H]1O5` came out in this test?
inactive

Given `C[N+]1(C)CCCCC1` , state the outcome it received in this test.
inactive

Test call for this compound, please: CCCCCCC1CCOC1=O (stereo unspecified)
inactive

Hi, sorry to bother you, what did the test record for `CC(=O)CN(CC(C)=O)N=O` ?
inactive

Name the outcome recorded for `N#CC(Br)(Br)C(N)=O` in the assay.
inactive

Fill in: this test's call for `CC(C)(C)C(=O)Cl` is ___
inactive

What outcome does the record of this test show for `O=C/C=C/c1ccco1` ?
inactive

Fill in: this test's call for `CCCCCCCCSC(=O)Oc1cc(Cl)nnc1-c1ccccc1` is ___
inactive

Any idea what this test logged for OCC(Cl)CCl (stereo unspecified) ?
inactive

Each compound tested received a call. Report the one for `Clc1ccc(C(Cl)(Cl)Cl)cn1` .
active

I'd appreciate the recorded outcome for `[P]#[In]` from this test.
inactive

Can you look up the reported call for `O=S1(=O)OCCO1` for me?
inactive

Could you check what this test reported for `COc1ccc(CN2CCNCC2)c(OC)c1OC` ?
inactive

Would you mind telling me which call this test gave `CC(=NC#N)N(C)Cc1ccc(Cl)nc1` ?
inactive

Fill in: this test's call for BrCC1CO1 (stereo unspecified) is ___
inactive

Test call, this compound: `NC1(c2ccccc2)CCCCC1`
inactive

For CC(C)NCC(O)c1ccc([N+](=O)[O-])cc1 (stereo unspecified) , what call appears in the results of this test?
inactive

Recorded call for COc1cc(CC(C)N)cc(OC)c1OC (stereo unspecified) ?
inactive

Field: outcome | Entry: `COc1ccc2c(C(=O)c3ccc(Cl)cc3)c(C)n(CC(=O)O)c2c1`
active

Query: recorded result category for `O=P(O)(O)c1ccccc1` in this test
inactive
